Tested on: KgpF v 3.1
Sequence (as listed by the source): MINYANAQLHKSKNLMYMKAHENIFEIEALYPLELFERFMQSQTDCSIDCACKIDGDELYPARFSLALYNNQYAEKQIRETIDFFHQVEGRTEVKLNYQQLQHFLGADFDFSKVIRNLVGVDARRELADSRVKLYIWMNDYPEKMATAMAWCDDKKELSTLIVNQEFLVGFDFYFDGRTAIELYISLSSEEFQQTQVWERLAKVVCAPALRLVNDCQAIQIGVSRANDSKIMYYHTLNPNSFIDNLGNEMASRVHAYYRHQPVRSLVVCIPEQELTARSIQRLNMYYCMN
Assay: Prenylation of artificial cyclic peptides with 10 μM KgpF v 3.1 (Example 11; Table 7)
Type: biochemical, Microcystis aeruginosa
Set-up: key: 5: strong intensity; 4: medium intensity; 3: weak intensity; 2: very weak intensity; 1: no peak; N/A: not observed
Details: KgpF v 3.1 10 μM
Positions of bridges follow the written chain, without caps; N, C: chain ends. Non-standard residues stand in square brackets, D forms with d. No end group written: not given here.
Attribute Measured: Peak intensity, The number of prenyl groups added 0

Substance	Result
YG291-PaktiL2 ({CH2CO}-[dY]WILITWPLVRRKC; thioether N-14 (inferred))	4
YG296-aMD5 ({CH2CO}-[dY]WYYAWDQTYKAFPC; thioether N-15 (inferred))	5
YG293-MaL4 ({CH2CO}-[dY]TFRDVWIFYGSLLSRC; thioether N-17 (inferred))	1
YG297-aMD4: cyclic peptide obtained by translation and synthesis ({CH2CO}-[dY]RQFNRRTHEVWNLDC; thioether N-16 (inferred))	1
YG295-aML5 ({CH2CO}-[dY]ISWNEFNSPNWRFITC; thioether N-17 (inferred))	1
YG289-S2iD7: cyclic peptide obtained by translation and synthesis ({CH2CO}-[dY]HDYRIWRYHTYPC; thioether N-14 (inferred))	1
YG292-PaktiL5: cyclic peptide obtained by translation and synthesis ({CH2CO}-[dY]IRRPWVPIIYLGC; thioether N-14 (inferred))	1
